% Inh @ 300 nM (% Inhibition of 125I-PYY Binding) overview
target: human neuropeptide Y5 receptor (Homo sapiens); construct: expressed in transfected cells; host or cells: HEK-293 (stably transfected, G-418 selected); membranes; test: NPY5 HTS centrifugation assay: competition with 125I-PYY for binding to membranes of NPY5-transfected HEK293 cells; conditions: 300 nM compound, 80 pM 125I-PYY, 1 hr room temperature
Sequence (Q15761 whole entry): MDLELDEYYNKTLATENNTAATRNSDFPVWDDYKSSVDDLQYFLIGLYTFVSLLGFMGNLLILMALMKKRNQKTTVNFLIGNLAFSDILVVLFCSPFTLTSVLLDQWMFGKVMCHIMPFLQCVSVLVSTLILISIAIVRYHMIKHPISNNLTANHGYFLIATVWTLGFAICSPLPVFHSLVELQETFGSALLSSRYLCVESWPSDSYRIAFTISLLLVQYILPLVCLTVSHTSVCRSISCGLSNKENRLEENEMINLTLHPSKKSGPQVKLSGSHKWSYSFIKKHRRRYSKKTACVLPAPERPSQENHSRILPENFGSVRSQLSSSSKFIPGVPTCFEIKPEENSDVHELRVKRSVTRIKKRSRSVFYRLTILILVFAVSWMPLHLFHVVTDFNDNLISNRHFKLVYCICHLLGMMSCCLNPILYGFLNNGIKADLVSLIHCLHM
endpoint: % Inh @ 300 nM (% Inhibition of 125I-PYY Binding) (%)

{"molecule": "NC(CCCCNS(=O)(=O)c1ccccc1)CNC1CCc2ccccc2C1Cc1cccnc1 (mixture of isomers) [Compound 65]", "endpoint unit": "%", "experimental value": 79}
{"molecule": "CN(C)C(CCCCNS(=O)(=O)c1ccccc1)C(=O)NC1CCc2ccccc2C1Cc1cccnc1 (single isomer, unassigned) [Compound 43a]", "endpoint unit": "%", "experimental value": 84}
{"molecule": "O=C(CN1CCC(NC(=O)c2ccccc2)CC1)NC1CCc2cc(F)ccc2C1Cc1cccnc1 (stereo not drawn)", "endpoint unit": "%", "experimental value": 93}

FYI, the data here is from patent US7071195B2.
